Where do the numbers come from? From patent US20250101041A1.

Biological target: human mAChR M4 (Homo sapiens, UniProt P08173)
Sequence (P08173 1-479): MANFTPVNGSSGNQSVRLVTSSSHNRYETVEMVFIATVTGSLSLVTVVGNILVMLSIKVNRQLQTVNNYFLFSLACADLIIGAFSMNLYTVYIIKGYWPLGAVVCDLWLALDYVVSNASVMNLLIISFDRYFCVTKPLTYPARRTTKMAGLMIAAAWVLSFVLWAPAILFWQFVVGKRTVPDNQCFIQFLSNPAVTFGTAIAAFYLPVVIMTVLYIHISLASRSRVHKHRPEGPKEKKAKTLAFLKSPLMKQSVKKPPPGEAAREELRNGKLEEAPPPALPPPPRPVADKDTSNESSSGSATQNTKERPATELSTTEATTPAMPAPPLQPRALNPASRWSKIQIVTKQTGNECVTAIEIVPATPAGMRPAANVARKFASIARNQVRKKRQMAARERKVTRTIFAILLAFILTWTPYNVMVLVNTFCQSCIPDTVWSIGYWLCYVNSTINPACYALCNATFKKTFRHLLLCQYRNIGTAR
Assay: mAChR M4 cell-based functional assay: calcium mobilization (Fluo-4, FDSS), potentiation of EC20 acetylcholine response in hM4-Gqi5 CHO-K1 cells
Conditions: potentiation of EC20 acetylcholine response, calcium mobilization, human M4
measured attribute: EC50 (nM)

Cc1cc(F)cnc1-c1cnc2c(c1)CN(c1nn3c(=O)ccnc3cc1C)CC2 [Compound 1-350] :: 3450

P = Cc1cc(=O)n2nc(N3CCc4ncc(-c5cc(F)c(F)cc5F)cc4C3)c(C)c(C)c2n1 [Compound 1-200]
Q = [2H]C1([2H])Cc2ncc(-c3ccnn3C)cc2C([2H])([2H])N1c1nn2c(=O)ccnc2cc1C [Compound 1-449]
Between the two listed entries P and Q , which has its EC50 at the higher number? Record your answer as the label of the chosen record.
P
(P: 531 nM, Q: 283 nM)

I = Cc1ccncc1-c1cnc2c(c1)CN(c1nn3c(=O)cc(C(F)F)nc3c(C)c1C)CC2 [Compound 1-161]
II = COCc1cc(=O)n2nc(N3CCc4ncc(-c5ccc(CO)s5)cc4C3)c(C)cc2n1 [Compound 1-369]
Which record shows the lower EC50: the first, I , or the second, II ? Record your answer as the label of the chosen record.
II
(II: 46 nM, I: 92 nM)

---

molecular target: human mAChR M4 (Homo sapiens); assay: mAChR M4 cell-based functional assay: calcium mobilization (Fluo-4, FDSS), potentiation of EC20 acetylcholine response in hM4-Gqi5 CHO-K1 cells; conditions: potentiation of EC20 acetylcholine response, calcium mobilization, human M4
measured attribute: EC50 (nM)

Record excerpt, results attached:
Cc1cc2nccc(=O)n2nc1N1CCc2ncc(Nc3cncc(F)c3)cc2C1 :: 90
Cc1c(N2CCc3ncc(-c4ccnnc4)cc3C2)nn2c(=O)ccnc2c1C :: 410

a = COc1ccc(Nc2cnc3c(c2)CN(c2nn4c(=O)ccnc4cc2C)CC3)cn1
b = COCc1cc(=O)n2nc(N3CCc4ncc(-c5ncc(F)cc5F)cc4C3)c(C)cc2n1
c = Cc1cc2nc(C(F)F)cc(=O)n2nc1N1CCc2ncc(-c3cnn(C)c3)cc2C1
Hello, I need these entries ordered by EC50, highest reading first. Thanks! Lab note: final answer is the ordered label list.
b, a, c

---

target: human mAChR M4 (Homo sapiens); construct: expressed in transfected cells; host or cells: CHO-K1 (American Type Culture Collection), stably expressing hM4 and Gqi5; assay: mAChR M4 cell-based functional assay: calcium mobilization (Fluo-4, FDSS), potentiation of EC20 acetylcholine response in hM4-Gqi5 CHO-K1 cells; conditions: CHO-K1, % ACh maximum at 30 μM; human M4
measured attribute: Emax at 30 µM (%)

Record excerpt, results attached:
Cc1cc2nccc(=O)n2nc1N1CCc2ncc(Nc3cccc(F)n3)cc2C1 [Compound 2-107] :: 79
COC1CCN(c2cnc3c(c2)CN(c2nn4c(=O)cc(C)nc4c(C)c2C)CC3)CC1 [Compound 2-45] :: 66
Cc1cc2ncc(N3CCOCC3)c(=O)n2nc1N1CCc2ncc(C(F)(F)F)cc2C1 [Compound 1-19] :: 70
Cc1c(N2CCc3ncc(-c4cnn(C(F)F)c4)cc3C2)nn2c(=O)ccnc2c1C [Compound 1-339] :: 77
Cc1cc2nccn2cc1-c1cnc2c(c1)CN(c1nn3c(=O)cc(C(F)F)nc3c(C)c1C)CC2 [Compound 1-162] :: 71
Cc1cc(=O)n2nc(N3CCc4ncc(N5CCOC(c6cccnc6)C5)cc4C3)c(C)c(C)c2n1 (stereo not shown) [Compound 2-49] :: 75

P = COCc1cc(=O)n2nc(N3CCc4ncc(-c5cccnc5)cc4C3)c(C)cc2n1 [Compound 1-365]
Q = Cc1c(N2CCc3ncc(C(F)(F)F)cc3C2)nn2c(=O)ccnc2c1C [Compound 1-64]
Between the two listed entries P and Q , which has its Emax at 30 µM at the higher number? Record your answer as the label of the chosen record.
Q

---

Target: human mAChR M4 (Homo sapiens, UniProt P08173)
Sequence (P08173 1-479): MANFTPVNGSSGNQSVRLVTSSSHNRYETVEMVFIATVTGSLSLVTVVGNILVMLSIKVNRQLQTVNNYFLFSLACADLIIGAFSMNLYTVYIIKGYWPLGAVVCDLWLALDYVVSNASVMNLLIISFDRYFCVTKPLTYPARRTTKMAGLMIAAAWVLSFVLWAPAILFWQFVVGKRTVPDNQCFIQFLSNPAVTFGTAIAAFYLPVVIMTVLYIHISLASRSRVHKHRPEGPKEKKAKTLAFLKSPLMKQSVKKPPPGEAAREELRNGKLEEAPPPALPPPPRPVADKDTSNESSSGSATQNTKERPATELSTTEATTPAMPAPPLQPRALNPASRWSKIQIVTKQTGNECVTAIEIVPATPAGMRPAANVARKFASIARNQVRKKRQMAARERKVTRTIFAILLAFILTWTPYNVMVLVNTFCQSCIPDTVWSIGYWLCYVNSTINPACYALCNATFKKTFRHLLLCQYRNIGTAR
Assay: mAChR M4 cell-based functional assay: calcium mobilization (Fluo-4, FDSS), potentiation of EC20 acetylcholine response in hM4-Gqi5 CHO-K1 cells
Conditions: potentiation of EC20 acetylcholine response, calcium mobilization, human M4
pEC50: −log10 of the molar value.
measured attribute: pEC50

Record excerpt, results attached:
CCc1cnc2cc(C)c(N3CCc4ncc(C(F)(F)F)cc4C3)nn2c1=O :: 6.51
Cc1cc(=O)n2nc(N3CCc4ncc(-c5cccs5)cc4C3)c(C)cc2n1 :: 7.12
Cc1cc2nccc(=O)n2nc1N1CCc2ncc(-c3cc(C#N)n(C)c3C)cc2C1 :: 5.93

I = Cc1ccc(-c2cnc3c(c2)CN(c2nn4c(=O)cc(C(=O)NCc5cncs5)nc4cc2C)CC3)cn1
II = Cc1nc2c(C)c(C)c(N3CCc4ncc(C(F)(F)F)cc4C3)nn2c(=O)c1F
Between the two listed entries I and II , which has its pEC50 at the higher number? Record your answer as the label of the chosen record.
II

---

Molecular target: human mAChR M4 (Homo sapiens)
Sequence (P08173 1-479): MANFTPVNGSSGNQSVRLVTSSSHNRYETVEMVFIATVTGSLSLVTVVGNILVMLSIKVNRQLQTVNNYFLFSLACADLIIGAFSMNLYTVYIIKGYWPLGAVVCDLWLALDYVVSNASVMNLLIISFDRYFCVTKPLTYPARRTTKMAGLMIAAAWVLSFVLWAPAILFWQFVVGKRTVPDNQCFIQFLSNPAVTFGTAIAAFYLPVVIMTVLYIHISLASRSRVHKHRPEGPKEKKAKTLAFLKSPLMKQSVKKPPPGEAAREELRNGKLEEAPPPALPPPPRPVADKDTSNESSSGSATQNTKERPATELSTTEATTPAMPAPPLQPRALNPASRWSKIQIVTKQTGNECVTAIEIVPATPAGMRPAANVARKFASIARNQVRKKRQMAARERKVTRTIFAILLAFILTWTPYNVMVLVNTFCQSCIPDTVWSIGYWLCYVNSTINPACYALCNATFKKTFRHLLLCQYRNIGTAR
Assay: mAChR M4 cell-based functional assay: calcium mobilization (Fluo-4, FDSS), potentiation of EC20 acetylcholine response in hM4-Gqi5 CHO-K1 cells
Conditions: potentiation of EC20 acetylcholine response, calcium mobilization, human M4
Procedure: […] Calcium flux was measured using the Functional Drug Screening System (FDSS) 6000 or 7000 (Hamamatsu Corporation, Tokyo, Japan) as an increase in the fluorescent static ratio. […] Agonist activity was analyzed as a concentration-dependent increase in calcium mobilization upon compound addition. Positive allosteric modulator activity was analyzed as a concentration-dependent increase in the EC20 acetylcholine response. […]
measured attribute: EC50 (nM)

Cc1cc(=O)n2nc(N3CCc4ncc(-c5cnn(C6CC6)c5)cc4C3)c(C)cc2n1 :: 405
COCc1cc(=O)n2nc(N3CCc4ncc(C(F)(F)F)cc4C3)c(C)c(C)c2n1 :: 60
Cc1cc2nccc(=O)n2nc1N1CCc2ncc(-c3cccnn3)cc2C1 :: 3310

A = Cc1cncc(-c2cnc3c(c2)CN(c2nn4c(=O)ccnc4cc2C)CC3)c1
B = Cc1cc2nccc(=O)n2nc1N1CCc2ncc(NS(=O)(=O)C3CC3)cc2C1
C = Cc1cc(=O)n2nc(N3CCc4ncc(-c5ccccc5OC(C)C)cc4C3)c(C)c(C)c2n1
D = Cc1cc(=O)n2nc(N3CCc4ncc(-c5cccc(F)c5)cc4C3)c(C)cc2n1
E = Cc1ccccc1Nc1cnc2c(c1)CN(c1nn3c(=O)ccnc3cc1C)CC2
Which order do these items take when sorted by rising EC50? List them. Lab note: final answer is the ordered label list.
E, C, D, A, B
(E: 17 nM, C: 296 nM, D: 446 nM, A: 656 nM, B: 3050 nM)
